System: M-NFS-60 mouse myeloid leukemia lymphocytes
Test: CSF-1R cell proliferation study (Cell Titer Glo);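 also: M-CSF-driven proliferation, viable cells quantified as ATP by luminescence, compounds tested as 3-fold serial dilutions, values from four-parameter curve fits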
Format: cell-based
Settings: Lymphocyte, 72 h, M-NFS-60 cells, M-CSF, 3 days, CTG, * = average of multiple tests, read-out: Cytological experiment CSF-1R IC50
Form field: pIC50 (one value per entry).
// field semantics: pIC50 = negative decimal log of concentration (mol/L)

# COMPOUND, REPORTED_METRIC, TEST_VALUE
records = [
    ("Cc1nc(NC(=O)N2CCC(C)(C)C2=O)ccc1Oc1ccnc(-c2cnn(C3COC3)c2)c1 [Example 18]", "pIC50", 6.90),
]

Would you kindly look at the next entry?
What value of pIC50 has been recorded for this entry: Cc1nc(NC(=O)N2CCC(C)(OCc3ccccc3)C2=O)ccc1Oc1ccnc(-c2cnn(C)c2)c1 (centres unmarked) [Example 36]
6.30

====

Form field: pIC50 (one value per entry).
Target: PDGFRA (Homo sapiens, UniProt P16234)
Sequence (P16234 24-1089): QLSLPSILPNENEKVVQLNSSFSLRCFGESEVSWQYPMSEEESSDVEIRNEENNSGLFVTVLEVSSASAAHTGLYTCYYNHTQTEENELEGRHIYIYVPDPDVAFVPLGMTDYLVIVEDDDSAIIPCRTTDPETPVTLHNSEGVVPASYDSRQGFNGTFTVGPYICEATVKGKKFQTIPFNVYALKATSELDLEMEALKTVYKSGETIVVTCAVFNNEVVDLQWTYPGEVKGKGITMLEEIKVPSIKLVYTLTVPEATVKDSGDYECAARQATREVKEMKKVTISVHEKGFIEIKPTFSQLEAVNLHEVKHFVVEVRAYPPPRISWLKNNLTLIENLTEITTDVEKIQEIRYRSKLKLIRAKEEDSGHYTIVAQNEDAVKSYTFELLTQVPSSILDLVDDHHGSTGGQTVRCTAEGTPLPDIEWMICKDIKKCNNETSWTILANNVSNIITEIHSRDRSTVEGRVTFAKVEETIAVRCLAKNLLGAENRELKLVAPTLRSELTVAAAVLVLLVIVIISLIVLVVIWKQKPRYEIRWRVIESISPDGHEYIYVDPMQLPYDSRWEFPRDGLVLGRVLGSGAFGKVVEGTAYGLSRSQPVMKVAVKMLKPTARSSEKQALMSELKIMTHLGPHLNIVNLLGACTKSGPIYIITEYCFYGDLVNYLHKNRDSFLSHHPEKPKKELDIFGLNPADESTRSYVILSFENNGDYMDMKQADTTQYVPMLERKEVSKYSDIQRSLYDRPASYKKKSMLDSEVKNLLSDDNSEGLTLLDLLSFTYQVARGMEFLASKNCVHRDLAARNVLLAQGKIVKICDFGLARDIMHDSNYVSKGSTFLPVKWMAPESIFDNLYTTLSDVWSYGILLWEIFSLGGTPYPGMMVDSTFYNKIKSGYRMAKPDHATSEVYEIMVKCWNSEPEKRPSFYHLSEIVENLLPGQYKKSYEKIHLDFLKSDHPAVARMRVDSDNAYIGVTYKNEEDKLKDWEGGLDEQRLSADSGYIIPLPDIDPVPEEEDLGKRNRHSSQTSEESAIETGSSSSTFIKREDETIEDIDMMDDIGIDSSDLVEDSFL
// field semantics: pIC50 = negative decimal log of concentration (mol/L)

Reference set (4 entries):
# STRUCTURE_STRING, pIC50
rows = [
    ("CCn1cc(-c2cc(Oc3ccc(NC(=O)N4CCC(C)(C)C4=O)nc3C)ccn2)cn1", 5.61),
    ("Cc1nc(NC(=O)N2CCOC(C)(C)C2=O)ccc1Oc1ccnc(-c2cnn(C)c2)c1", 6.03),
    ("Cn1cc(-c2cc(Oc3ccc(NC(=O)N4CCC(C)(C)C4=O)nc3)ccn2)cn1", 6.36),
    ("Cc1nc(NC(=O)N2CCCC(C)(C)C2=O)ccc1Oc1ccnc(-c2cnn(C)c2)c1", 6.97),
]

Would you kindly look at the next entry?
Record lookup: for PDGFRA (Homo sapiens, UniProt P16234), what pIC50 belongs to Cc1nc(NC(=O)N2CCC(C)(C)C2=O)ccc1Oc1ccnc(-c2cnn(CCO)c2)c1 ?
4.88

====

Reported values: IC50 for KIT (Homo sapiens, UniProt P10721), one per item.
Please give a number only; it is taken to be in nM.

Record lookup: for KIT (Homo sapiens, UniProt P10721), what IC50 belongs to Cn1cc(-c2cc(Oc3ccc(NC(=O)N4CCC(C)(C)C4=O)nc3)ccn2)cn1 [Example 2] ?
59.8

Record lookup: for KIT (Homo sapiens, UniProt P10721), what IC50 belongs to Cc1nc(NC(=O)N2CCOC(C)(C)C2=O)ccc1Oc1ccnc(-c2cnn(C)c2)c1 [Example 29] ?
92.5

====

Target: CSF-1R (Homo sapiens, UniProt P07333)
Sequence (P07333 20-972): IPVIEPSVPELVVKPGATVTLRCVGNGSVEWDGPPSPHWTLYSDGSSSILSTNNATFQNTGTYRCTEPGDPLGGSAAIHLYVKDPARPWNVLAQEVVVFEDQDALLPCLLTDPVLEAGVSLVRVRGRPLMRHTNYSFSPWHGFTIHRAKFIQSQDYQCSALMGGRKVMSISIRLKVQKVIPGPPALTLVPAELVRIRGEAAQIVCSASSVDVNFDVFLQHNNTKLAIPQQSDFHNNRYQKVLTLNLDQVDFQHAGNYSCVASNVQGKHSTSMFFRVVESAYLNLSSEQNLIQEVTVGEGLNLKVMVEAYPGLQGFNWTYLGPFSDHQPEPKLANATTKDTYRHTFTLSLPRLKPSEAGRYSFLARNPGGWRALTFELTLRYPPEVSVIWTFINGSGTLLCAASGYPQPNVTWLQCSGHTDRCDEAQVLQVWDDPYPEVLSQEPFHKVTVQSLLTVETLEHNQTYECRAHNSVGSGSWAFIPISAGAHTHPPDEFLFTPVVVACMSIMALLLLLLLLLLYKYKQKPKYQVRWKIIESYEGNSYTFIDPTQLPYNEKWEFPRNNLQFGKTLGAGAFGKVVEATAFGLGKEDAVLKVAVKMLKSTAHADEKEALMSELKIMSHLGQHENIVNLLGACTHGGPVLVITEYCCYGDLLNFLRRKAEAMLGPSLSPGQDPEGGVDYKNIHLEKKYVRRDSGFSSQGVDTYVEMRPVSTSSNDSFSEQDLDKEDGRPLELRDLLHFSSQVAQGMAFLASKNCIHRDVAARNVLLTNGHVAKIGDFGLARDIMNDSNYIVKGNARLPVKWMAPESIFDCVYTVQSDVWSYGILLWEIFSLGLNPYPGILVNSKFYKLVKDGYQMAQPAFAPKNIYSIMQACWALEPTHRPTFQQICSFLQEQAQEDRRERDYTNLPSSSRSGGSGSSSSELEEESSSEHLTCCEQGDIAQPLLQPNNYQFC
pIC50: −log10 of the molar value.
label 1 means recorded pIC50 is 7 or above; label 0 means it is below 7.

Confirm if pIC50 reported for the compound Cc1nc(NC(=O)N2CCC(C)(O)C2=O)ccc1Oc1ccnc(-c2cnn(C)c2)c1 (centres unmarked) [Example 41] is 7 or above.
label 0

Confirm if pIC50 reported for the compound Cc1nc(NC(=O)N2CCCC2=O)ccc1Oc1ccnc(-c2cnn(C)c2)c1 [Example 38] is 7 or above.
label 0

Confirm if pIC50 reported for the compound Cc1nc(NC(=O)N2CCC(C)(C)C2=O)ccc1Oc1ccnc(-c2cn(C)cn2)c1 [Example 19] is 7 or above.
label 0

Confirm if pIC50 reported for the compound Cc1ncc(-c2cc(Oc3ccc(NC(=O)N4CCC(C)(C)C4=O)nc3C)ccn2)s1 [Example 5] is 7 or above.
label 1

Confirm if pIC50 reported for the compound Cc1nc(NC(=O)N2CCC(C)(C)C2=O)ccc1Oc1ccnc(-c2cnn(C)c2)n1 [Example 22] is 7 or above.
label 0
